SUBJECT OF TEST: Tel-FGFR4 (Homo sapiens (Human))
Sequence (P22455 other isoform, or with tags, fused parts or gaps): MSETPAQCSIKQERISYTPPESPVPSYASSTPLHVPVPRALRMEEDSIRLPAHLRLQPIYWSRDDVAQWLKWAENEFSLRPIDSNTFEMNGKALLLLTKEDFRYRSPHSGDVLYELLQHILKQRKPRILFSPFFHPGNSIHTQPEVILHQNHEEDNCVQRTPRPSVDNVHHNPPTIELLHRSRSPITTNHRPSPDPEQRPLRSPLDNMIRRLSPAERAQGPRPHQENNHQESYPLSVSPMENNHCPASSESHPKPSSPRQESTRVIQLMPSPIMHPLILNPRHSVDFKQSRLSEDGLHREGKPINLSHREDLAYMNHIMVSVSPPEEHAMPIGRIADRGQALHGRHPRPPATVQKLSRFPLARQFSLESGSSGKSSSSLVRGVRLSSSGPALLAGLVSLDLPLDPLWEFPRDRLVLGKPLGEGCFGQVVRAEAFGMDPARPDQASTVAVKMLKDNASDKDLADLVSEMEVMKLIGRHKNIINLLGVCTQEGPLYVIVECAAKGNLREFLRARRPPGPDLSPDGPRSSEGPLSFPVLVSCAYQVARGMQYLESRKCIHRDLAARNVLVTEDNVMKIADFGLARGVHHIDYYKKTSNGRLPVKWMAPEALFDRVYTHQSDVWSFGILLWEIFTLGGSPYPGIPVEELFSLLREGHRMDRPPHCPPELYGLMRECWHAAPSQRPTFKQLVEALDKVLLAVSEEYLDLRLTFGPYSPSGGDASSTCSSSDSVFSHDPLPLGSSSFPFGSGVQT
EXPERIMENT: In vitro cellular kinase assay for FGFR4 (BaF3-Tel-FGFR4 cells, MSD capture ELISA of tyrosine phosphorylation)
Format: cell-based
RUN CONDITIONS: Cellular BaF3 FGFR4 assay; read-out: Cellular IC50
Measured IC50, listed per entry.
VALUE TYPE: IC50 (nM)

{"COMPOUND": "COCCNc1cc(NC(=O)N2CCCc3cc(CN4CCN(C)C(=O)C4)c(C=O)nc32)ncc1C#N", "RECORDED NUMBER": 7.1}
{"COMPOUND": "CC(C)Oc1cc(NC(=O)N2CCCc3cc(CN4CCN(C)CC4)c(C=O)nc32)ncc1C#N", "RECORDED NUMBER": 55.5}
{"COMPOUND": "CC(C)Oc1cc(NC(=O)N2c3nc(C=O)ccc3CCC2C)ncc1C#N (stereo not shown)", "RECORDED NUMBER": 328}
{"COMPOUND": "CCNc1cc(NC(=O)N2CCCc3cc(CN(CC)C(=O)CN(C)C)c(C=O)nc32)ncc1C#N", "RECORDED NUMBER": 10.2}
{"COMPOUND": "CCN(Cc1cc2c(nc1C=O)N(C(=O)Nc1cc(NC)c(C#N)cn1)CCC2)C(=O)CN(C)C", "RECORDED NUMBER": 13}
{"COMPOUND": "CC(C)Oc1cc(NC(=O)N2CCCc3cc(C(F)F)c(C=O)nc32)ncc1C#N", "RECORDED NUMBER": 21}
{"COMPOUND": "COC(C)(C)CNc1cc(NC(=O)N2CCCc3cc(C(F)F)c(C=O)nc32)ncc1C#N", "RECORDED NUMBER": 37}
{"COMPOUND": "COC[C@@H](C)Oc1cc(NC(=O)N2CCCc3cc(CN4CCCC4=O)c(C=O)nc32)ncc1C#N", "RECORDED NUMBER": 2.3}
{"COMPOUND": "COCCNc1cc(NC(=O)N2CCCc3cc(CN4C[C@@H](N(C)C)CC4=O)c(C=O)nc32)ncc1C#N", "RECORDED NUMBER": 5.8}
{"COMPOUND": "CCc1cc(NC(=O)N2CCCc3cc(CN4CCN(C)CC4=O)c(C=O)nc32)ncc1C#N", "RECORDED NUMBER": 22.5}
{"COMPOUND": "N#Cc1cnc(NC(=O)N2CCCc3cc(C(F)F)c(C=O)nc32)cc1OCC1CNCCO1 (stereo not shown)", "RECORDED NUMBER": 10.8}
{"COMPOUND": "COCCNc1cc(NC(=O)N2CCC(O)c3cc(CN4CCN(C)CC4=O)c(C=O)nc32)ncc1C#N (stereo not shown)", "RECORDED NUMBER": 51.3}
{"COMPOUND": "COC(C)(C)CNc1cc(NC(=O)N2CCCc3cc(CN(C)C(C)=O)c(C=O)nc32)ncc1C#N", "RECORDED NUMBER": 4.9}
{"COMPOUND": "CN1CCN(Cc2cc3c(nc2C=O)N(C(=O)Nc2cc(OCC(F)F)c(C#N)cn2)CCC3)C(=O)C1", "RECORDED NUMBER": 6.7}
{"COMPOUND": "COc1cc(NC(=O)N2CCCc3cc(CN4CCCC4=O)c(C=O)nc32)ncc1C(F)(F)F", "RECORDED NUMBER": 138}
{"COMPOUND": "COCCNc1cc(NC(=O)N2CCCc3cc(CN4C[C@H](N(C)C)CC4=O)c(C=O)nc32)ncc1C#N", "RECORDED NUMBER": 6.1}
{"COMPOUND": "CN1CCN(Cc2cc3c(nc2C=O)N(C(=O)Nc2cc(NCC(C)(C)O)c(C#N)cn2)CCC3)C(=O)C1", "RECORDED NUMBER": 4.8}
{"COMPOUND": "CC(C)Oc1cc(NC(=O)N2CCCc3cc(CN4C[C@@H](N(C)C)CC4=O)c(C=O)nc32)ncc1C#N", "RECORDED NUMBER": 11.1}
{"COMPOUND": "CC(C)Oc1cc(NC(=O)N2CCCc3cc(CN4CCOC4=O)c(C=O)nc32)ncc1C#N", "RECORDED NUMBER": 5.6}

Attribution: patent US9266883B2
